Tested on: NCI-H522 lung
Assay: NCI-60 one-dose screen, 48 h (100 = growth as untreated, 0 = no growth, -100 = all killed)
Details: 10 µM
This is part of a sample that, as a whole, favours compounds with a hit. Of some 83,000 tested, about 20% had one in any assay.
Please use Y for growth under 50% and N for everything else, ties included.

The following molecules have reported results that may help.
C=C(C)[C@@H]1CC[C@]2(COC(=O)c3ccccc3C(=O)O)CC[C@]3(C)[C@H](CC[C@@H]4[C@@]5(C)CCCNC(C)(C)[C@@H]5CC[C@]43C)[C@@H]12	N
O=C(Nc1cccc(Cn2c(=O)[nH]c3ccc(Oc4ncccn4)cc3c2=O)c1)c1cccc(F)c1	N
Cc1ccc(S(=O)(=O)NC(CCC(=O)Nc2ccccc2)C(=O)Nc2ccccc2)cc1 (configuration not stated)	Y

Dear colleague, could you confirm whether growth of COc1cc(N)c2nccc(C)c2c1OC falls below 50%? Thanks. N

Dear colleague, could you confirm whether growth of NNC(=O)CNc1ccc2ccccc2c1 falls below 50%? Thanks. N

Dear colleague, could you confirm whether growth of COc1ccc(-c2cc(C#N)c(NNC(C)=O)[nH]2)cc1 falls below 50%? Thanks. N

Dear colleague, could you confirm whether growth of CC1=C[C@@H]2c3c(c(O)c(O)c4oc5cc(O)cc(O)c5c(=O)c34)[C@@H](c3cc(O)c(O)c4oc5cc(O)cc(O)c5c(=O)c34)[C@@H]2C(C)(C)C1 falls below 50%? Thanks. Y

Dear colleague, could you confirm whether growth of Cc1sc(NC(=O)c2ccc(C(C)(C)C)cc2)c(C(=O)O)c1C falls below 50%? Thanks. N

Dear colleague, could you confirm whether growth of O=C(/C=C\c1ccccc1Cl)c1ccccc1 falls below 50%? Thanks. N

Dear colleague, could you confirm whether growth of CC(C)(C)c1ccc([I+]c2ccc(C(C)(C)C)cc2)cc1 falls below 50%? Thanks. Y

Dear colleague, could you confirm whether growth of O=S(=O)(O)c1ccc2c(c1)Sc1cc(S(=O)(=O)O)ccc1O2 falls below 50%? Thanks. N

Dear colleague, could you confirm whether growth of CCOC(=O)c1c(C)oc2ncnc(Nc3ccc(NC(=O)Nc4ccc(CC)cc4)cc3)c12 falls below 50%? Thanks. N

Dear colleague, could you confirm whether growth of COc1ccc(OC)c(Cn2cc3c(c2-c2ccccc2)CCc2cnoc2-3)c1 falls below 50%? Thanks. N

Dear colleague, could you confirm whether growth of O=C(O)c1occ(Cl)c1Cl falls below 50%? Thanks. N

----------
System: CCRF-CEM leukemia
Assay: NCI-60 one-dose screen, 48 h (100 = growth as untreated, 0 = no growth, -100 = all killed)
Conditions: 10 µM
This is part of a sample that, as a whole, favours compounds with a hit. Of some 83,000 tested, about 20% had one in any assay. Calls of active or inactive are those of the source. How the source made its calls: active means growth percent below 10; inactive means the rest.
Property: growth; scope: individual molecules

Examples from the recorded data:
COc1ccc(/C=C(/C(=O)N2CCN(c3ccc(C)cc3)CC2)c2cc(OC)c(OC)c(OC)c2)cc1N	13.4% (inactive)
O=C(Nc1ccc(Cl)cn1)C1(c2ccccc2)CCCCC1	14.1% (inactive)
OC(c1ccccc1)(c1ccccc1)C(F)(F)F	84.7% (inactive)

The recorded growth for CCC(C)(C)c1ccc(OCCCCCCN2CCNCC2)cc1 is 4.24% (active)

The recorded growth for CC(=O)/C(=C/c1ccc(-c2ccccc2)cc1)C(=O)c1ccccc1 is 38.6% (inactive)

The recorded growth for COC1(OC)N=C(N)C2(C#N)C3(C(=O)Nc4ccccc43)C12C#N (stereo unspecified) is 77.8% (inactive)
